Each item that follows carries a reported MIC.
system: Pseudomonas aeruginosa (P. aeruginosa) (ATCC 9027); assay: MIC/MBC determination; assay type: cell-based; details: MHB, 5 × 10^5 CFU/ml, 37 °C, 20 h, read at 550 nm
Where no end group is shown, it is not given here.
Parameter: MIC (µM)

# Substance, Comparator, Numeric readout
data = [
    ("GVIFNALKGVAKTVAAQLLKKAR-NH2 [GV23]", "=", 16),
    ("GVIFNALK-NH2 [GV8]", ">", 512),
    ("GVIFNALKGVAKTVAAQLLK-NH2 [GV20]", "=", 32),
    ("GVIFNALKGVAKTVAAQLLKK-NH2 [GV21]", "=", 16),
    ("TVAAQLLKKAR-NH2 [GV11]", ">", 512),
    ("GVIFNALKGVAK-NH2 [GV12]", ">", 512),
]
